# Test system: HOP-62 NSCLC
# Method Description: NCI tumour cell line growth inhibition, 48 h
Assay Metric: TGI

O=C1NN(C(=O)c2ccccc2)C(c2ccc(Cl)c(Cl)c2)=C/C1=C\c1ccccc1[N+](=O)[O-] ... > 6.75 µM
COc1cc2c(c(OC)c1OC)-c1ccc(OC)c(=O)cc1C(NC(=O)CCCCCNc1ccc(N=[N+]=[N-])cc1[N+](=O)[O-])CC2 (stereo unspecified) ... > 31.6 µM
COc1cccc(/C=C2\N=C(Cl)OC2=O)c1O ... > 100 µM
COc1cccc(C2SC(C)C(=O)N2NC(=O)C(O)c2ccccc2)c1 (stereo unspecified) ... > 100 µM
C/C(COc1ccc2oc(-c3ccccc3)cc(=O)c2c1)=N\O ... > 100 µM
COC(=O)[C@H](Cc1ccccc1)NC(=O)OCC1OC(n2cc(C)c(=O)[nH]c2=O)CC1N=[N+]=[N-] (stereo partly specified) ... > 100 µM
CCOC(=O)C(=CNc1ccc(S(N)(=O)=O)cc1)C(=O)OCC ... > 100 µM
C=C(C)[C@@H]1C/C=C(/COC(C)=O)CC[C@H]2O[C@@]2(C)CC/C=C(\C)CC1 ... > 100 µM
Cn1c(=O)nc2n(-c3ccc(F)c(F)c3)c3ccccc3nc-2c1=O ... > 100 µM
O=C(N/C(=C\c1cccc([N+](=O)[O-])c1)c1nc2c3c(ccc2[nH]1)C(=O)c1ccccc1C3=O)c1ccccc1 ... > 100 µM
CC(C)(C)c1cc[n+](C[n+]2ccc(C(C)(C)C)cc2)cc1 ... > 100 µM

Values compiled from PubChem BioAssay (NCI).
